Molecular target: PTP1B (Homo sapiens, UniProt P18031)
Construct: using the catalytic core of a human recombinant PTP, as an enzyme
Sequence (P18031 3-277 limits assumed): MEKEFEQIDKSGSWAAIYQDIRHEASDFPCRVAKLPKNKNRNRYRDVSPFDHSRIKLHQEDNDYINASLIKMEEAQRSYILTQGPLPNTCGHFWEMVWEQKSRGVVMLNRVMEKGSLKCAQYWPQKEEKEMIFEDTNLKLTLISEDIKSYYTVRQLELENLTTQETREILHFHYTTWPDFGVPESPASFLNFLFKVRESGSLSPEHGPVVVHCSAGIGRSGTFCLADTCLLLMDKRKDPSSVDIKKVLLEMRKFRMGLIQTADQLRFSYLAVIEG
Test: PTP Enzyme Assay (DiFMUP substrate), PTP1B
Details: catalytic core of human recombinant PTP, DiFMUP at Km; read-out: inhibition (IC50) with regard to PTP1B
pIC50: −log10 of the molar value.
Reported Endpoint: pIC50

1: O=C1NN(c2ccc(I)cc2)C(=O)C1=Cc1cc(Br)c(O)c2ncccc12
2: O=C1NN(c2ccc(I)cc2)C(=O)C1=Cc1ccc(Br)o1
Q) Consider 1 and 2 . Which of these has its pIC50 at a higher number? Record your answer as the label of the chosen record.
A) 2
